molecular target: EGFR L858R/T790M/C797S (BaF3-LTC cells) (Homo sapiens, UniProt P00533, C797S/L858R/T790M); construct: expressed in transfected cells; host or cells: BaF3; assay: EGFR degradation HTRF assay, BaF3-LTC cells; type: cell-based; conditions: BaF3-LTC, 16h treatment, maximum percentage of degradation; read-out: LTC Dmax (%)
Sequence (P00533 25-1210 T790M/C797S/L858R): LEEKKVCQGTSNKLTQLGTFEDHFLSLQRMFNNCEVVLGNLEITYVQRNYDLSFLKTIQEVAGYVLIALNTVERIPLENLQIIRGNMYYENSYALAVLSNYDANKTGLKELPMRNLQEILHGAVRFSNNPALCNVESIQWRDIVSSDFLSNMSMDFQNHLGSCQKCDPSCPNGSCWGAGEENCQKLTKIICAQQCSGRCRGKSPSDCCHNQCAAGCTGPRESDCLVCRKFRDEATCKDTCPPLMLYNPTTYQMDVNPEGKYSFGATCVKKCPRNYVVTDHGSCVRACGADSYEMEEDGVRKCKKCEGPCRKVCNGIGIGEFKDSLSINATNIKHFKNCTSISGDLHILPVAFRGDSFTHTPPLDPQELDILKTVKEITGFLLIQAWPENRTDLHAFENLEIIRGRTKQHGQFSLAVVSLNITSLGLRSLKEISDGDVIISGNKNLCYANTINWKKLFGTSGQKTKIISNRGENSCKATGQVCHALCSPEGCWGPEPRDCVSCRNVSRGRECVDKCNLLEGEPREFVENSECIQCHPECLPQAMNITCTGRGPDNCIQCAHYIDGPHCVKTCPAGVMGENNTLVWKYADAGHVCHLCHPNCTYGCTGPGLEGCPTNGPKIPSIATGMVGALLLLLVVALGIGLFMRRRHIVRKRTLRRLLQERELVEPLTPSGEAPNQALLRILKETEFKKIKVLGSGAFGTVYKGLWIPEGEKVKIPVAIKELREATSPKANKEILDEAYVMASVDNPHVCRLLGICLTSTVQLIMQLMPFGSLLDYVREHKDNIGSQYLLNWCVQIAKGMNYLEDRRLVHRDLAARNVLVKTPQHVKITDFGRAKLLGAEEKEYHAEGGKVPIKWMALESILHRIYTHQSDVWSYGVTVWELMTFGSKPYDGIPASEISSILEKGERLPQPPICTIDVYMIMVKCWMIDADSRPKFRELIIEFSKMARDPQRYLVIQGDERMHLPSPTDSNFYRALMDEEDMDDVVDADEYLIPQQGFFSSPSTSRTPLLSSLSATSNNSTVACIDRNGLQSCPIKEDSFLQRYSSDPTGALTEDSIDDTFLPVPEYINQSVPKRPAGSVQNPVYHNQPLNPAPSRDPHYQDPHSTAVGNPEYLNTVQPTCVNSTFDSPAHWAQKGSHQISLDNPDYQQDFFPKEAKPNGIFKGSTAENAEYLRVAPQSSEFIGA
# key: entry, value: Dmax

compound: CCc1cc(Nc2ncc(Br)c(Nc3ccc4nccnc4c3P(C)(C)=O)n2)c(OC)cc1N1CCC(N2CCN(C[C@H]3CCN(c4ccc(C5CCC(=O)NC5=O)cc4)C3)CC2)CC1 (some centres unmarked)
experimental_target: EGFR L858R/T790M/C797S (BaF3-LTC cells) (Homo sapiens, UniProt P00533, C797S/L858R/T790M)
Dmax [%]: 88.8

compound: CCc1cc(Nc2ncc(Br)c(Nc3ccc4nccnc4c3P(C)(C)=O)n2)c(OC)cc1N1CCC(N2CCN(C(=O)[C@@H]3CCN(c4ccc5c(c4)C(=O)N(C4CCC(=O)NC4=O)C5=O)C3)CC2)CC1 (some centres unmarked)
experimental_target: EGFR L858R/T790M/C797S (BaF3-LTC cells) (Homo sapiens, UniProt P00533, C797S/L858R/T790M)
Dmax [%]: 75.5

compound: COc1cc(N2CCC(N3C[C@@H]4C[C@H]3CN4CCC3CCN(c4cc(F)c(C5CCC(=O)NC5=O)c(F)c4)CC3)CC2)c(C)cc1Nc1ncc(Br)c(Nc2ccc3nccnc3c2P(C)(C)=O)n1 (some centres unmarked)
experimental_target: EGFR L858R/T790M/C797S (BaF3-LTC cells) (Homo sapiens, UniProt P00533, C797S/L858R/T790M)
Dmax [%]: 90.5

compound: CCc1cc(Nc2ncc(Br)c(Nc3ccc4nc(C(F)(F)F)ccc4c3P(C)(C)=O)n2)c(OC)cc1N1CCC(N2CCN(CCc3cc(F)c(C4CCC(=O)NC4=O)c(F)c3)CC2)CC1 (centres unmarked)
experimental_target: EGFR L858R/T790M/C797S (BaF3-LTC cells) (Homo sapiens, UniProt P00533, C797S/L858R/T790M)
Dmax [%]: 89.9

compound: CCc1cc(Nc2ncc(Br)c(Nc3ccc4nccnc4c3P(C)(C)=O)n2)c(OC)cc1N1CCC(N2CCN(CCC3CCN(c4ccc(C5CCC(=O)NC5=O)c(C#N)c4)CC3)CC2)CC1 (centres unmarked)
experimental_target: EGFR L858R/T790M/C797S (BaF3-LTC cells) (Homo sapiens, UniProt P00533, C797S/L858R/T790M)
Dmax [%]: 81.2

src = patent US20230265116A1
